# experimental_target: Cholinesterase (Equus caballus)
# Sequence (P81908 whole entry): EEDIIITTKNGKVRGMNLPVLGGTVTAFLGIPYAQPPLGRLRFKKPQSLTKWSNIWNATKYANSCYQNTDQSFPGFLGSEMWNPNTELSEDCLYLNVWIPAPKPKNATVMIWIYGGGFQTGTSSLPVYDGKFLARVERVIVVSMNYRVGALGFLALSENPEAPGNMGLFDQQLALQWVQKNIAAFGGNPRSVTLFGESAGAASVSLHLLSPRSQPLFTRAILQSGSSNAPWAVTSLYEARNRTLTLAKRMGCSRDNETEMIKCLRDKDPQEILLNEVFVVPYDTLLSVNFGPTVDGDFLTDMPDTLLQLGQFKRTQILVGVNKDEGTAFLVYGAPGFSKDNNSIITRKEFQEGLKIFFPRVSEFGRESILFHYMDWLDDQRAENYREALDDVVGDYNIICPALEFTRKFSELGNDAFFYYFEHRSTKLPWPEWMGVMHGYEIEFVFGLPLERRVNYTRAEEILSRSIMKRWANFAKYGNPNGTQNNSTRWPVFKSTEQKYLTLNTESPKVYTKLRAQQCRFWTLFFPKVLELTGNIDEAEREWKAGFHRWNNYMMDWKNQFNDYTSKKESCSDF
# experimental_details: Inhibition of equine serum BuChE using S-butyrylthiocholine chloride as substrate incubated for 15 mins prior to substrate addition measured after 30 mins by Ellman's method
pIC50: −log10 of the molar value.
Each entry gets False if its pIC50 stays under 5, and True if its pIC50 is 5 or above.

Would you please look over these solved cases?
// inclusive: pIC50 at least 5? input: S=C1NC2=C(CNC/C2=C\c2ccc(Cl)cc2)C(c2ccc(Cl)cc2)N1 (stereo unspecified)
True

// inclusive: pIC50 at least 5? input: O=C1NC2=C(CNC/C2=C\c2ccc(Cl)cc2)C(c2ccc(Cl)cc2)N1 (stereo unspecified)
False

// inclusive: pIC50 at least 5? input: O=C1NC2=C(CNC/C2=C\c2ccccc2F)C(c2ccccc2F)N1 (stereo unspecified)
True

// inclusive: pIC50 at least 5? input: O=C1NC2=C(CNC/C2=C\c2ccccc2)C(c2ccccc2)N1 (stereo unspecified)
True

// inclusive: pIC50 at least 5? input: S=C1NC2=C(CNC/C2=C\c2ccccc2)C(c2ccccc2)N1 (stereo unspecified)
True

New cases:
// inclusive: pIC50 at least 5? input: O=C1NC2=C(CNC/C2=C\c2ccc(Br)cc2)C(c2ccc(Br)cc2)N1 (stereo unspecified)
True

// inclusive: pIC50 at least 5? input: O=C1NC2=C(CNC/C2=C\c2ccc(F)cc2)C(c2ccc(F)cc2)N1 (stereo unspecified)
False

// inclusive: pIC50 at least 5? input: Cc1ccc(/C=C2\CNCC3=C2NC(=O)NC3c2ccc(C)cc2)cc1 (stereo unspecified)
True

// inclusive: pIC50 at least 5? input: S=C1NC2=C(CNC/C2=C\c2ccc(Cl)cc2Cl)C(c2ccc(Cl)cc2Cl)N1 (stereo unspecified)
False

// inclusive: pIC50 at least 5? input: S=C1NC2=C(CNC/C2=C\c2ccccc2Cl)C(c2ccccc2Cl)N1 (stereo unspecified)
True

// inclusive: pIC50 at least 5? input: O=C1NC2=C(CNC/C2=C\c2ccccc2Cl)C(c2ccccc2Cl)N1 (stereo unspecified)
True

// inclusive: pIC50 at least 5? input: Cc1ccccc1/C=C1\CNCC2=C1NC(=S)NC2c1ccccc1C (stereo unspecified)
True

// inclusive: pIC50 at least 5? input: Cc1ccccc1/C=C1\CNCC2=C1NC(=O)NC2c1ccccc1C (stereo unspecified)
True

// inclusive: pIC50 at least 5? input: Fc1ccc(/C=C2\CNCC3=C2NC(=S)NC3c2ccc(F)cc2)cc1 (stereo unspecified)
False

// inclusive: pIC50 at least 5? input: Fc1ccccc1/C=C1\CNCC2=C1NC(=S)NC2c1ccccc1F (stereo unspecified)
True

// inclusive: pIC50 at least 5? input: O=C1NC2=C(CNC/C2=C\c2ccc(Cl)cc2Cl)C(c2ccc(Cl)cc2Cl)N1 (stereo unspecified)
False

// inclusive: pIC50 at least 5? input: S=C1NC2=C(CNC/C2=C\c2ccc(Br)cc2)C(c2ccc(Br)cc2)N1 (stereo unspecified)
True

// inclusive: pIC50 at least 5? input: COc1ccccc1/C=C1\CNCC2=C1NC(=S)NC2c1ccccc1OC (stereo unspecified)
True

====

# experimental_target: Acetylcholinesterase (Electrophorus electricus)
# Sequence (O42275 whole entry): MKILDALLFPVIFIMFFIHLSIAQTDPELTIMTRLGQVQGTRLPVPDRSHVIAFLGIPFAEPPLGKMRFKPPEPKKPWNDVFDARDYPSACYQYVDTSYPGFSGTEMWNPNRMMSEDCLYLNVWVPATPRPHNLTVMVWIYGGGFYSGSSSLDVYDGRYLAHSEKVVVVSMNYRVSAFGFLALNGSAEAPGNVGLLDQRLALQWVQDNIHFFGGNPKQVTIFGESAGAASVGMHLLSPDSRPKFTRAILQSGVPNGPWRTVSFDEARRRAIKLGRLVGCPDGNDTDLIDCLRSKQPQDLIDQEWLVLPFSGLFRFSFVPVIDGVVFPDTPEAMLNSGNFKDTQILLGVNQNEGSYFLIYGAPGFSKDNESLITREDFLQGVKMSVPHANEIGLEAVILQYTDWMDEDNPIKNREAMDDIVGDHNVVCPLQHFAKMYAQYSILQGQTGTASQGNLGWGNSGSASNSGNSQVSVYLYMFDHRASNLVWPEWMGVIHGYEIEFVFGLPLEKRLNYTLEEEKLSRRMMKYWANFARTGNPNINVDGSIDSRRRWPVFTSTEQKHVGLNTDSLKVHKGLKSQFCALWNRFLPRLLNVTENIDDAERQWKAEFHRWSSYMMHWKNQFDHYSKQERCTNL
property_name: pIC50
Please treat pIC50 as minus the base-10 logarithm of the molar concentration.

The cases that follow already have their pIC50 on record.
Name the reported pIC50 value associated with the molecule S=C1NC2=C(CNC/C2=C\c2ccc(Cl)cc2Cl)C(c2ccc(Cl)cc2Cl)N1 (stereo not drawn)
4.58

Name the reported pIC50 value associated with the molecule Cc1ccc(/C=C2\CNCC3=C2NC(=O)NC3c2ccc(C)cc2)cc1 (stereo not drawn)
4.33

Turning now to a further record.
Name the reported pIC50 value associated with the molecule S=C1NC2=C(CNC/C2=C\c2ccc(Br)cc2)C(c2ccc(Br)cc2)N1 (stereo not drawn)
4.93
